system: MALME-3M melanoma; experiment: NCI tumour cell line growth inhibition, 48 h
Can you tell me TGI for the items I'm about to list?

*Q* Which TGI is listed for CCOC(=O)NC(=O)c1cn(CCCCCCCCCCC(=O)NCCCN2CCN(CCCNC(=O)CCCCCCCCCCn3cc(C(=O)NC(=O)OCC)c(=O)[nH]c3=O)CC2)c(=O)[nH]c1=O ?
*A* > 100 µM

*Q* Which TGI is listed for O=C(CC(Cc1ccccc1)c1ccc(Oc2ccccc2)cc1)Nc1cccc(Cl)c1 (stereo not drawn) ?
*A* > 100 µM

*Q* Which TGI is listed for CC(C)NC(=O)OCc1nnn2c1CCC2 ?
*A* > 100 µM

*Q* Which TGI is listed for Cc1n[nH]c(=O)n1Nc1ccccc1 ?
*A* > 100 µM

*Q* Which TGI is listed for CCN(CC)C(=S)/N=C(\SC(=S)N(CC)CC)c1ccccc1 ?
*A* > 100 µM

*Q* Which TGI is listed for Cc1nn(C(=O)c2ccc(Cl)cc2)c2c1C(c1ccccc1O)SC(N)=N2 (stereo not drawn) ?
*A* > 10 µM

*Q* Which TGI is listed for CN1C(c2ccccc2)CC(C)(O)CC1c1ccccc1 (stereo not drawn) ?
*A* > 100 µM

*Q* Which TGI is listed for O=S(=O)(Nc1nccs1)c1ccc([As](=O)(O)O)cc1 ?
*A* > 100 µM

*Q* Which TGI is listed for COc1ccc(N=N/C(=N\NC(=O)c2cc(Br)ccc2O)c2ccc(N(CCC#N)CCC#N)cc2OC)cc1 ?
*A* > 150 µg/mL

*Q* Which TGI is listed for COc1cccc(N2C(=O)/C(=C/c3ccc(N(CCC#N)CCC#N)cc3)N=C2c2cc([N+](=O)[O-])ccc2Cl)c1 ?
*A* > 100 µM

*Q* Which TGI is listed for O=C(O)CCC(=O)Oc1ccc(O)c2c1CCCC2=O ?
*A* > 100 µM

*Q* Which TGI is listed for Clc1ccc(OCc2nnc3sc(SSc4nn5c(COc6ccc(Cl)cc6)nnc5s4)nn23)cc1 ?
*A* > 100 µM

*Q* Which TGI is listed for COc1ccc(N2C(=O)C(=O)N(C)C2=O)c2ccccc12 ?
*A* > 10 µM

*Q* Which TGI is listed for CC(=O)c1cc(CC2Cc3cc4c(cc3C2=O)CCC4)cc2c1CCC2 (stereo not drawn) ?
*A* > 100 µM

*Q* Which TGI is listed for COc1ccc(C2CC(c3ccccc3)=NN2C(=O)c2cc(OC)c(OC)c(OC)c2)cc1O (stereo not drawn) ?
*A* > 100 µM

*Q* Which TGI is listed for N#CC(C#N)=Cc1ccc(C(O)P(=O)(O)O)cc1 (stereo not drawn) ?
*A* > 100 µM

*Q* Which TGI is listed for C1=Nc2ccccc2Cn2nncc21 ?
*A* > 100 µM

*Q* Which TGI is listed for COc1ccc(/C(=C/c2ccc3ccccc3c2)c2nn[nH]n2)cc1OC ?
*A* > 100 µM

*Q* Which TGI is listed for Brc1c2c(c(Br)c3nsnc13)N=S=N2 ?
*A* > 72.6 µM

*Q* Which TGI is listed for Clc1cc2nc(C3CCCCO3)[nH]c2cc1Cl (stereo not drawn) ?
*A* > 100 µM

*Q* Which TGI is listed for CN1C(=O)N/C(=C\c2ccc(S(=O)(=O)N/N=C/c3ccccc3)cc2)C1=O ?
*A* > 100 µM

*Q* Which TGI is listed for N#CC(NNC(=O)c1c(Cl)c(Cl)c(Cl)c(Cl)c1-c1nc2ccc(C(=O)c3ccccc3)cc2[nH]1)c1ccccc1 (stereo not drawn) ?
*A* > 100 µM

*Q* Which TGI is listed for Cc1cc(O)c2c(c1)C(C1OC(CO)C(O)C(O)C1O)c1cc(O)cc(O)c1C2=O (stereo not drawn) ?
*A* > 100 µM

This collection of values is drawn from PubChem BioAssay (NCI).
